target: HLA-A*02:01 (Homo sapiens, UniProt P04439, D140Y/D185E/D98H/E176V/E277Q/G131W/G231S/I119V/I121R/I166T/I218V/L300P/L318F/N151K/N90K/P208A/P217A/Q86G/Q94H/R138H/R169H/T345S); experiment: MHC binding assay (UV-ligand exchange, beta2m ELISA, peptide exchange yield); conditions: binding to HLA-A*02:01 ranged by peptide exchange yield, β2m ELISA
parameter_measured: Peptide exchange (MHC class I binding score)

- substance: "35 (VLHSLQTQL; listed as Homo sapiens) [compound 35]"
  experimental_value: "++ (≥20% = ++)"
- substance: "49 (VLIVEVPGV; listed as Homo sapiens) [compound 49]"
  experimental_value: "+++ (≥50 = +++)"
- substance: "40 (YIQEHLLQI; listed as Homo sapiens) [compound 40]"
  experimental_value: "+++ (≥50 = +++)"
- substance: "23 (YIQEVVQYI; listed as Homo sapiens) [compound 23]"
  experimental_value: "+++ (≥50 = +++)"
- substance: "75 (FLIKSINLV; listed as Homo sapiens) [compound 75]"
  experimental_value: "+++ (≥50 = +++)"
- substance: "14 (ALLTETIFL; listed as Homo sapiens) [compound 14]"
  experimental_value: "++ (≥20% = ++)"
- substance: "73 (GLDGIPFTV; listed as Homo sapiens) [compound 73]"
  experimental_value: "+++ (≥50 = +++)"
- substance: "60 (ILWKDIEYV; listed as Homo sapiens) [compound 60]"
  experimental_value: "+++ (≥50 = +++)"
- substance: "4 (FLSQDIITV; listed as Homo sapiens) [compound 4]"
  experimental_value: "+++ (≥50 = +++)"
- substance: "63 (GLIEDHFDVTV; listed as Homo sapiens) [compound 63]"
  experimental_value: "++ (≥20% = ++)"

---

molecular target: HLA-A*02:01 (Homo sapiens, UniProt P04439, D140Y/D185E/D98H/E176V/E277Q/G131W/G231S/I119V/I121R/I166T/I218V/L300P/L318F/N151K/N90K/P208A/P217A/Q86G/Q94H/R138H/R169H/T345S); test: MHC binding assay (UV-ligand exchange, beta2m ELISA, peptide exchange yield); conditions: binding to HLA-A*02:01 ranged by peptide exchange yield, β2m ELISA
parameter_measured: Peptide exchange (MHC class I binding score)

- substance: "67 (LLDVLAPLV; listed as Homo sapiens) [compound 67]"
  experimental_value: "++ (≥20% = ++)"
- substance: "42 (VILDTGTIQL; listed as Homo sapiens) [compound 42]"
  experimental_value: "++ (≥20% = ++)"
- substance: "47 (TLAEVRAVQEI; listed as Homo sapiens) [compound 47]"
  experimental_value: "+++ (≥50 = +++)"
- substance: "36 (SLFGKKYIL; listed as Homo sapiens) [compound 36]"
  experimental_value: "++ (≥20% = ++)"
- substance: "10 (KLLQNNYGL; listed as Homo sapiens) [compound 10]"
  experimental_value: "++ (≥20% = ++)"
- substance: "97 (TLISELVQA; listed as Homo sapiens) [compound 97]"
  experimental_value: "++ (≥20% = ++)"
- substance: "25 (LLVPAHLVAA; listed as Homo sapiens) [compound 25]"
  experimental_value: "++ (≥20% = ++)"
- substance: "107 (VLMDLKALLL; listed as Homo sapiens) [compound 107]"
  experimental_value: "+++ (≥50 = +++)"
- substance: "50 (SLSDHIVLL; listed as Homo sapiens) [compound 50]"
  experimental_value: "++ (≥20% = ++)"
- substance: "59 (SLKNNVVSV; listed as Homo sapiens) [compound 59]"
  experimental_value: "+++ (≥50 = +++)"
- substance: "7 (FLLSLIDRL; listed as Homo sapiens) [compound 7]"
  experimental_value: "+++ (≥50 = +++)"

---

biological target: HLA-A*02:01 (Homo sapiens, UniProt P04439, D140Y/D185E/D98H/E176V/E277Q/G131W/G231S/I119V/I121R/I166T/I218V/L300P/L318F/N151K/N90K/P208A/P217A/Q86G/Q94H/R138H/R169H/T345S); experiment: MHC binding assay (UV-ligand exchange, beta2m ELISA, peptide exchange yield); details: binding to HLA-A*02:01 ranged by peptide exchange yield, β2m ELISA
parameter_measured: Peptide exchange (MHC class I binding score)

- substance: "95 (KLTDVGIATL; listed as Homo sapiens) [compound 95]"
  experimental_value: "++ (≥20% = ++)"
- substance: "72 (YSLEKVFGI; listed as Homo sapiens) [compound 72]"
  experimental_value: "++ (≥20% = ++)"
- substance: "110 (LLDLHSYLL; listed as Homo sapiens) [compound 110]"
  experimental_value: "++ (≥20% = ++)"
- substance: "70 (SLTALRLLL; listed as Homo sapiens) [compound 70]"
  experimental_value: "++ (≥20% = ++)"
- substance: "106 (VLMDLKALL; listed as Homo sapiens) [compound 106]"
  experimental_value: "+++ (≥50 = +++)"
- substance: "19 (LLDPGSLQL; listed as Homo sapiens) [compound 19]"
  experimental_value: "++ (≥20% = ++)"
- substance: "57 (SLQKEILYL; listed as Homo sapiens) [compound 57]"
  experimental_value: "++ (≥20% = ++)"
- substance: "80 (KLASMLETL; listed as Homo sapiens) [compound 80]"
  experimental_value: "+++ (≥50 = +++)"
- substance: "16 (FMPEELPQL; listed as Homo sapiens) [compound 16]"
  experimental_value: "++ (≥20% = ++)"
- substance: "21 (RLIQGDQILSV; listed as Homo sapiens) [compound 21]"
  experimental_value: "++ (≥20% = ++)"

---

biological target: HLA-A*02:01 (Homo sapiens, UniProt P04439, D140Y/D185E/D98H/E176V/E277Q/G131W/G231S/I119V/I121R/I166T/I218V/L300P/L318F/N151K/N90K/P208A/P217A/Q86G/Q94H/R138H/R169H/T345S); assay: MHC binding assay (UV-ligand exchange, beta2m ELISA, peptide exchange yield); conditions: binding to HLA-A*02:01 ranged by peptide exchange yield, β2m ELISA
parameter_measured: Peptide exchange (MHC class I binding score)

- substance: "56 (ILMDFSNSM; listed as Homo sapiens) [compound 56]"
  experimental_value: "+++ (≥50 = +++)"
- substance: "20 (AVANTTFTV; listed as Homo sapiens) [compound 20]"
  experimental_value: "++ (≥20% = ++)"
- substance: "86 (GLLQGKLALL; listed as Homo sapiens) [compound 86]"
  experimental_value: "++ (≥20% = ++)"
- substance: "55 (YLALILPVL; listed as Homo sapiens) [compound 55]"
  experimental_value: "++ (≥20% = ++)"
- substance: "2 (ILWREVVTL; listed as Homo sapiens) [compound 2]"
  experimental_value: "+++ (≥50 = +++)"
- substance: "112 (LLFDHLEPIEL; listed as Homo sapiens) [compound 112]"
  experimental_value: "+++ (≥50 = +++)"
- substance: "1 (ALIVSLPYL; listed as Homo sapiens) [compound 1]"
  experimental_value: "+++ (≥50 = +++)"
- substance: "46 (GLSEVLVQI; listed as Homo sapiens) [compound 46]"
  experimental_value: "+++ (≥50 = +++)"
- substance: "71 (ALDGHLYAV; listed as Homo sapiens) [compound 71]"
  experimental_value: "+++ (≥50 = +++)"
- substance: "6 (VLFELSKTV; listed as Homo sapiens) [compound 6]"
  experimental_value: "+++ (≥50 = +++)"

---

molecular target: HLA-A*02:01 (Homo sapiens, UniProt P04439, D140Y/D185E/D98H/E176V/E277Q/G131W/G231S/I119V/I121R/I166T/I218V/L300P/L318F/N151K/N90K/P208A/P217A/Q86G/Q94H/R138H/R169H/T345S); assay: MHC binding assay (UV-ligand exchange, beta2m ELISA, peptide exchange yield); settings: binding to HLA-A*02:01 ranged by peptide exchange yield, β2m ELISA
parameter_measured: Peptide exchange (MHC class I binding score)

- substance: "96 (TLAETLVNL; listed as Homo sapiens) [compound 96]"
  experimental_value: "+++ (≥50 = +++)"
- substance: "22 (FLSPPLPSV; listed as Homo sapiens) [compound 22]"
  experimental_value: "+++ (≥50 = +++)"
- substance: "29 (ILLDLEQAL; listed as Homo sapiens) [compound 29]"
  experimental_value: "+++ (≥50 = +++)"
